Consider the following Ki data for Sodium-dependent serotonin transporter (Rattus norvegicus, UniProt P31652), collected from several reports.
OUTCOME_MEASURE: Ki (nM)

{"columns": ["MOLECULE", "ASSAY_RESULT"],
 "data": [
  ["COc1ccc2[nH]cc(C3CCCN(CCCCn4c(=O)c(-c5ccccc5Cl)c5ccccn5c4=O)C3)c2c1 (stereo not drawn)", 459]
]}

a. COc1ccc2[nH]cc(C3=CCN(CCCN4C(=O)CC(c5c[nH]c6ccccc56)C4=O)CC3)c2c1 (racemic)
b. O=c1c(-c2ccccc2)c2ccccn2c(=O)n1CCCCN1CC=C(c2c[nH]c3ccc(F)cc23)CC1
c. Oc1c(F)cccc1OC(c1ccccc1)C1CCNCC1 (stereo not drawn)
d. CNCC[C@H](c1ccc(Cl)c(Cl)c1)c1cccc2ccccc12
e. O=c1c(-c2ccc(F)cc2)c2ccccn2c(=O)n1CCCCN1CCCC(c2c[nH]c3ccccc23)C1 (stereo not drawn)
Query: Sort ascending by Ki. # output: labels, in the requested order
Response: d, c, b, e, a

I. CC(=O)Nc1cccc(CC2CCN(CCOc3cccc4nc(C)ccc34)CC2)c1
II. O=C1CC(c2c[nH]c3ccccc23)C(=O)N1CCCN1CC=C(c2c[nH]c3ccc(Cl)cc23)CC1 (racemic)
Query: Higher Ki between I and II ? Your answer should be the label of the entry you select.
Response: I

I. CN1Cc2cc(OCCCN3CCC(F)CC3)ccc2C(c2cccc(C(F)(F)F)c2)C1 (stereo not drawn)
II. CSc1ccc(C2CN(C)Cc3cc(OCCCN4CCC(F)CC4)ccc32)cc1 (stereo in doubt; (-)/-12p)
Query: Just tell me: smaller Ki value, I or II ? Your answer should be the label of the entry you select.
Response: II
(II: 5 nM, I: 30 nM)

---

Consider the following Ki data for Sodium-dependent serotonin transporter (Rattus norvegicus, UniProt P31652), collected from several reports.
OUTCOME_MEASURE: Ki (nM)

Consider the following illustrative entries.
{"columns": ["MOLECULE", "OUTCOME_MEASURE", "ASSAY_RESULT"],
 "data": [
  ["O=C(NCC1(N2CCN(c3ccccc3)CC2)CCOCC1)c1cccnc1Sc1ccccc1", "Ki", 3160],
  ["OC(CCN1CCN(c2cccc3ccccc23)CC1)c1csc2ccccc12 (configuration not stated)", "Ki", 81.7],
  ["Brc1cccc(OC(c2ccccc2)C2CCNCC2)c1 (configuration not stated)", "Ki", 10],
  ["O=c1c(-c2ccccc2)c2ccccn2c(=O)n1CCCCN1CC=C(c2c[nH]c3ccc(Br)cc23)CC1", "Ki", 840],
  ["COc1cccc(C2CN3CCCC3c3cc(OCCCN4CCCCC4)ccc32)c1 (racemic)", "Ki", 4.7]
]}

a. O=C1CC(c2c[nH]c3ccccc23)C(=O)N1CCCN1CCC(c2c[nH]c3ccc(F)cc23)CC1 (racemic)
b. CN(C)CCC(Oc1ccc(Cl)c(Cl)c1)c1ccc(OCCCN2CCCCC2)cc1 (stereo in doubt; 40)
Query: Just tell me: smaller Ki value, a or b ? Your answer should be the label of the entry you select.
Response: b

---

Consider the following Ki data for Sodium-dependent serotonin transporter (Rattus norvegicus, UniProt P31652), collected from several reports.
OUTCOME_MEASURE: Ki (nM)

A. COc1ccccc1OC(c1ccc(I)s1)C1CNCCO1 (racemic)
B. COc1ccc(OC(c2ccc(F)cc2)C2CCCNC2)cc1 (stereo not given)
C. COc1ccccc1-c1c(=O)n(CCCCN2CC=C(c3c[nH]c4ccc(Cl)cc34)CC2)c(=O)n2ccccc12
D. COc1cccc(OC(CCN(C)C)c2ccc(OCCCN3CCCCC3)cc2)c1 (stereo not given)
E. CNCC[C@@H](c1ccc(Cl)c(Cl)c1)c1cccc2[nH]ccc12
Query: Reorder the records above by Ki so that values decrease. # output: labels, in the requested order
Response: C, A, B, E, D
(C: 718 nM, A: 141 nM, B: 20.8 nM, E: 3.63 nM, D: 2 nM)

I. Cc1ccccc1-c1c(=O)n(CCCCN2CC=C(c3c[nH]c4ccc(Cl)cc34)CC2)c(=O)n2ccccc12
II. O=c1c(-c2ccc(Cl)cc2)c2ccccn2c(=O)n1CCCCN1CCCC(c2c[nH]c3ccccc23)C1 (stereo not given)
III. CN(C)CCC(Oc1ccc(Cl)cc1)c1ccc(OCCCN2CCCCC2)cc1 (stereo not given)
IV. Fc1ccc(C(Oc2ccc(Cl)c(Cl)c2)C2CCCNC2)cc1 (stereo not given)
Query: Sort ascending by Ki. # output: labels, in the requested order
Response: III, IV, II, I
(III: 2.3 nM, IV: 32.2 nM, II: 82 nM, I: 740 nM)

---

pKi: −log10 of the molar value.
Consider the following pKi data for UniProt:P31652, collected from several reports.
OUTCOME_MEASURE: pKi

Consider the following illustrative entries.
{"columns": ["MOLECULE", "ASSAY_RESULT"],
 "data": [
  ["Cc1nc2c(N3CCN([C@H]4CC[C@H](c5c[nH]c6ccccc65)CC4)CC3)cccc2[nH]1", 6.94],
  ["CCCN(CCCc1c[nH]c2ccc(F)cc12)C1COc2c(F)ccc(C(=O)NC)c2C1 (configuration not stated)", 8.62],
  ["COc1cc(NC(=O)Nc2ccc(OC(CCN(C)C)c3ccccc3)cc2)ccc1Cl (configuration not stated)", 7.51],
  ["CCN(CCCc1c[nH]c2ccc(F)cc12)[C@H]1COc2c(F)ccc(C(N)=O)c2C1", 8.47],
  ["Oc1ccc(CN[C@@H]2CO[C@H](C(c3ccc(F)cc3)c3ccc(F)cc3)C[C@H]2O)cc1", 7.23]
]}

a. COCC1CNCCN1c1ccc2cc([N+](=O)[O-])ccc2n1 (configuration not stated)
b. O=C1COc2ccc(OC3CCN(CCOc4nccc5ccccc45)CC3)cc2N1
c. C[C@@H]1CN(CCCN(c2ccccc2)c2ccccc2)C[C@@H](C)N1CCCc1ccccc1
d. N#Cc1cc(F)cc(OC(c2ccccc2)C2CCNCC2)c1 (configuration not stated)
e. NC(=O)c1ccc2c(c1)CCOC2CCN1CCN(c2c[nH]c3cc(F)ccc23)CC1 (configuration not stated)
Query: Sort ascending by pKi. # output: labels, in the requested order
Response: c, b, e, d, a
(c: 5.91, b: 7.30, e: 7.72, d: 8.59, a: 9.17)

---

pKi: −log10 of the molar value.
Consider the following pKi data for UniProt P31652, collected from several reports.
OUTCOME_MEASURE: pKi

Consider the following illustrative entries.
{"columns": ["COMPOUND", "TGT", "pKi"],
 "data": [
  ["CN1CCN(c2nc3ccccc3c(-c3ccccc3)c2COC(=O)c2ccccc2)CC1", "UniProt P31652", 5.96],
  ["C#Cc1ccc(C2CN3CCCC3c3cc(OCCCN4CCCCC4)ccc32)cc1 (racemic)", "UniProt P31652", 8.15]
]}

1. COc1ccc2[nH]cc(C3=CCN(CCN4C(=O)CC(c5c[nH]c6ccccc56)C4=O)CC3)c2c1 (racemic)
2. CCCOCC1CNCCN1c1ccc2cc([N+](=O)[O-])ccc2n1 (stereo not drawn)
Query: Just tell me: smaller pKi value, 1 or 2 ? Your answer should be the label of the entry you select.
Response: 1
(1: 6.11, 2: 8.25)

a. COc1ccccc1N1CCN(CCC(O)c2csc3ccc(F)cc23)CC1 (stereo not drawn)
b. CN(C)CCC(Oc1ccc([N+](=O)[O-])cc1)c1ccc(OCCCN2CCCCC2)cc1 (stereo not drawn)
c. COc1ccc(C2CN(C)Cc3cc(OCCCN4CCC(F)CC4)ccc32)cc1 (racemic)
Query: Sort ascending by pKi. # output: labels, in the requested order
Response: a, b, c

a. Clc1ccccc1OC(c1ccccc1)C1CCNCC1 (stereo not drawn)
b. COc1cc2c(cc1OC)CN(CCC(Oc1ccccc1F)c1ccccc1)CC2 (stereo not drawn)
c. COc1cccc(C2CN(C)Cc3cc(OCCCN4CCC(F)CC4)ccc32)c1 (stereo not drawn)
d. COc1ccccc1-c1c(=O)n(CCCCN2CC=C(c3c[nH]c4ccc(F)cc34)CC2)c(=O)n2ccccc12
e. COc1ccccc1-c1c(=O)n(CCCCN2CC=C(c3c[nH]c4ccc(Br)cc34)CC2)c(=O)n2ccccc12
Query: Sort ascending by pKi. # output: labels, in the requested order
Response: e, b, d, a, c

---

Consider the following pKi data for Sodium-dependent serotonin transporter (Rattus norvegicus, UniProt P31652), collected from several reports.
pKi: −log10 of the molar value.
OUTCOME_MEASURE: pKi

{"columns": ["MOLECULE", "TGT", "ASSAY_RESULT"],
 "data": [
  ["CNCC[C@@H](c1cccs1)c1cccc2[nH]ccc12", "Sodium-dependent serotonin transporter (Rattus norvegicus, UniProt P31652)", 6.78]
]}

P. Brc1ccc(OC(c2ccccc2)C2CCNCC2)cc1 (single isomer, unassigned; (-))
Q. O=[N+]([O-])c1ccccc1COC(c1cccc(I)c1)C1CNCCO1 (racemic)
R. Fc1cc2c(c(OCCNCCCc3c[nH]c4ccc(F)cc34)c1)OCC2
S. Cc1ccc2c(OCCN3CCN(Cc4ccc5c(c4)N(CC(C)C)C(=O)CO5)CC3)cccc2n1
Query: Reorder: pKi, max to min. # output: labels, in the requested order
Response: R, P, Q, S
